# test.method.notes: Ratio calculated as IC50 ratio of CCK-A to that of CCK-B
readout.type: Ratio

Below: 3 molecules and their reported Ratio.
C[C@](Cc1c[nH]c2ccccc12)(NC(=O)OC1[C@H]2C[C@@H]3C[C@@H](C[C@H]1C3)C2)C(=O)N[C@H](CO)Cc1ccccc1 (stereo partly drawn) : 120
C[C@](Cc1c[nH]c2ccccc12)(NC(=O)OC1[C@H]2C[C@@H]3C[C@@H](C[C@H]1C3)C2)C(=O)N[C@H](CNC(=O)CC(=O)O)Cc1ccccc1 (stereo partly drawn) : 190
C[C@](Cc1c[nH]c2ccccc12)(NC(=O)OC1[C@H]2C[C@@H]3C[C@@H](C[C@H]1C3)C2)C(=O)N[C@@H](CNC(=O)CCC(=O)O)Cc1ccccc1 (stereo partly drawn) : 37

[1] C[C@](Cc1c[nH]c2ccccc12)(NC(=O)OC1[C@H]2C[C@@H]3C[C@@H](C[C@H]1C3)C2)C(=O)N[C@H](CNC(=O)/C=C/C(=O)O)Cc1ccccc1 (stereo partly drawn)
[2] C[C@](Cc1c[nH]c2ccccc12)(NC(=O)OC1[C@H]2C[C@@H]3C[C@@H](C[C@H]1C3)C2)C(=O)N[C@H](COC(=O)CCC(=O)O)Cc1ccccc1 (stereo partly drawn)
Record comparison, field Ratio: mark the lower of 1 and 2 . Identify your selection by its label.
2
(2: 220, 1: 550)

[I] C[C@](Cc1c[nH]c2ccccc12)(NC(=O)OC1[C@H]2C[C@@H]3C[C@@H](C[C@H]1C3)C2)C(=O)NCC(OC(=O)CCC(=O)O)c1ccccc1 (stereo partly drawn)
[II] CC(Cc1c[nH]c2ccccc12)(NC(=O)OC1[C@H]2C[C@@H]3C[C@@H](C[C@H]1C3)C2)C(=O)N[C@@H](CNC(=O)CCC(=O)O)Cc1ccccc1 (stereo partly drawn)
Parameter check: reported Ratio is higher for which label, I or II ? Response format: the label of the selected entry.
I
